B1: TPR t1 (parent)
chain: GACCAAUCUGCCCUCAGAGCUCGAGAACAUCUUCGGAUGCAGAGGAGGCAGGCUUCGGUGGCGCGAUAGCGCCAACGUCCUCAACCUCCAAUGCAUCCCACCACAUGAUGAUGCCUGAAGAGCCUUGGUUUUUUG

- Variants of: B1
- Experiment Notes: polymerase ribozyme fitness, log enrichment relative to wild type (log ratio); higher = more active; in vitro selection for triplet polymerase activity

>  <Mutation Notation>
C22A A27C C56U C114A U125A

>  <polymerase ribozyme fitness (log ratio)>
-4.58

$$$$
>  <Mutation Notation>
C22U C70U C88G

>  <polymerase ribozyme fitness (log ratio)>
-6.53

$$$$
>  <Mutation Notation>
C40U C124G

>  <polymerase ribozyme fitness (log ratio)>
1.52

$$$$
>  <Mutation Notation>
C49A U78C

>  <polymerase ribozyme fitness (log ratio)>
-0.24

$$$$
>  <Mutation Notation>
A2C G44C

>  <polymerase ribozyme fitness (log ratio)>
-3.44

$$$$
>  <Mutation Notation>
C53U A121U

>  <polymerase ribozyme fitness (log ratio)>
0.893

$$$$
>  <Mutation Notation>
A84G G122A

>  <polymerase ribozyme fitness (log ratio)>
-1.44

$$$$
>  <Mutation Notation>
G48U C53U U92C A100U C101U C124A U131G

>  <polymerase ribozyme fitness (log ratio)>
-2.57

$$$$
>  <Mutation Notation>
C34A C72U

>  <polymerase ribozyme fitness (log ratio)>
-2.58

$$$$
>  <Mutation Notation>
C49G C62U

>  <polymerase ribozyme fitness (log ratio)>
-0.813

$$$$
>  <Mutation Notation>
C8U C22U G52U G60C

>  <polymerase ribozyme fitness (log ratio)>
-4.56

$$$$
